Reported pKi values are given for each entry in this list.
- study system: Human α-thrombin (human, UniProt P00734 328-363; P00734 364-622)
- procedure details: enzyme kinetics, thrombin-catalysed chromogenic substrate hydrolysis, 37 °C
pKi: −log10 of the molar value. Non-standard residues stand in square brackets, D forms with d. No end group written: not given here.
property name: pKi

- PRFTDGEWTWDDATKTWTWTEGDFEEIPEEYLQ (MH2-wZIP4 with the first residue Ile replaced by Pro; also called P4230) [BRI-T109]: 5.84
- IRFTDGGSWTWEGNKWTWKGGDFEEIPEEYLQ (also called P4268) [MH2-wZIP1-2G]: 7.78
- [dF]PRPRFTDGEWTWDDATKTWTWTEGDFEEIPEEYL (ends and bridges not checked, also called P4229) [BRI-T208]: 7.55
- WDPRIRFTDGEWTWDDATKTWTWTEGDFEEIPEEYL [BRI-T219]: 6.79
- FQPRPRFTDGEWTWDDATKTWTWTEGDFEEIPEEYL (also called P4223) [BRI-T207]: 6.39
- IRFTDGSGSGSGSGSGSGDFEEIPEEYLQ (ends and bridges not checked, (GS)6 linker) [MH2-allGS]: 7.24
- IRFTDGSWTWEGNKWTWKGDFEEIPEEYLQ (also called P4269) [MH2-wZIP1]: 7.74

The origin of these recorded values is patent US20140113854A1.
